Data provenance: patent US10815230B2

# TEST SYSTEM: KDR/VEGFR2 (Homo sapiens)
# Sequence (P35968 20-1356): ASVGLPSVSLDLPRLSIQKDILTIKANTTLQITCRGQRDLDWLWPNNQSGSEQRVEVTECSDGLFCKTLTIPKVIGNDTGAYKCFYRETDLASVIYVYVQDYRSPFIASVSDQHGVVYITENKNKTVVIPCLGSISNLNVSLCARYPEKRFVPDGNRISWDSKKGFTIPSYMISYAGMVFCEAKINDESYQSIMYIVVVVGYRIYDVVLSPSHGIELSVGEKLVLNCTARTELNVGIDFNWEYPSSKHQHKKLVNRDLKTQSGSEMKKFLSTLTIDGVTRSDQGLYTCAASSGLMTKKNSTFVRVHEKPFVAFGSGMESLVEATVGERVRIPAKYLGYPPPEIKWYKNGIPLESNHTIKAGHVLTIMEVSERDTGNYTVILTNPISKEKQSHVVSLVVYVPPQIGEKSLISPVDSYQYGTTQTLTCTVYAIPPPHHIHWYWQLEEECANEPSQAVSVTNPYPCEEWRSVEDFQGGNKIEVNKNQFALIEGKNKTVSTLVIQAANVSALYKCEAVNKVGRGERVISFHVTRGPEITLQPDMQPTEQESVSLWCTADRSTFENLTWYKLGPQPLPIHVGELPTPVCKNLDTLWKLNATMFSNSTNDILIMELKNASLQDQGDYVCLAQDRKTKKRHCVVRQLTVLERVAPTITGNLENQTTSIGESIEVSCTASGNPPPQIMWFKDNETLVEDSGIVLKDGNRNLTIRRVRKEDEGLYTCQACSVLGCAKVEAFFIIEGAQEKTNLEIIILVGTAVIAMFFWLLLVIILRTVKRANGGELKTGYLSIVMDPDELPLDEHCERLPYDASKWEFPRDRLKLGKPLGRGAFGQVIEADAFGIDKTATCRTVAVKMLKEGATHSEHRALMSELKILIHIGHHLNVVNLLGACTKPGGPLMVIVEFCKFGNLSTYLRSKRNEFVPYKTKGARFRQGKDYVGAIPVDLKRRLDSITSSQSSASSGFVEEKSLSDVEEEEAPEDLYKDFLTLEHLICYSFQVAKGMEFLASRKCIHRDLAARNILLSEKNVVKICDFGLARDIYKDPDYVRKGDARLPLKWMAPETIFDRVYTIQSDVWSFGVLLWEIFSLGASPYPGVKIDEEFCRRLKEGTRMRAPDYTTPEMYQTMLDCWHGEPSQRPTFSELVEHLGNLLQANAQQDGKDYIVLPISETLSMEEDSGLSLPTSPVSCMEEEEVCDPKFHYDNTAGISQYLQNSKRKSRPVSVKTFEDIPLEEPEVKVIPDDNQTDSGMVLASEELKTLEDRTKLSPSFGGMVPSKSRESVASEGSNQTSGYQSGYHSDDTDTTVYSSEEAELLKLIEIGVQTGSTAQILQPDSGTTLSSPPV
# METHOD NOTES: Kinase selectivity, % remaining activity
# Format: biochemical
# CONDITION PARAMETERS: 10 μM compound, 10 μM ATP, duplicate, read-out: % of remaining activity (relative to DMSO)
PARAMETER: remaining activity at 10 µM

Example entries and their recorded answers appear below.
substance_smiles=NC(=O)c1c(N)c(C(=O)c2ccc(F)cc2)n2ccccc12 test_system="KDR/VEGFR2 (Homo sapiens)" parameter="remaining activity at 10 µM" experimental_result=90.3%
substance_smiles=CNc1c(C(N)=O)c2ccccn2c1C(=O)c1ccc(F)cc1 test_system="KDR/VEGFR2 (Homo sapiens)" parameter="remaining activity at 10 µM" experimental_result=111%
substance_smiles=Nc1ncc(-c2nc3ccccc3o2)c(-c2ccncc2)n1 test_system="KDR/VEGFR2 (Homo sapiens)" parameter="remaining activity at 10 µM" experimental_result=85.1%

[in] Field request: remaining activity at 10 µM | item: "Nc1ncnc2c1c(COc1cccc(Cl)c1)nn2C1CCOCC1"
[out] 83.1%

[in] Param item = "COc1ccc(C=C2N=C(c3cccs3)OC2=O)cc1" ; retrieve measured remaining activity at 10 µM.
[out] 104%
